These data points were gathered from BindingDB's records for patent US11174245.

Target: Epidermal growth factor receptor [695-1022,T790M,C797S,L858R] (Homo sapiens, UniProt P00533, C797S/L858R/T790M)
Sequence (P00533 695-1022 T790M/C797S/L858R): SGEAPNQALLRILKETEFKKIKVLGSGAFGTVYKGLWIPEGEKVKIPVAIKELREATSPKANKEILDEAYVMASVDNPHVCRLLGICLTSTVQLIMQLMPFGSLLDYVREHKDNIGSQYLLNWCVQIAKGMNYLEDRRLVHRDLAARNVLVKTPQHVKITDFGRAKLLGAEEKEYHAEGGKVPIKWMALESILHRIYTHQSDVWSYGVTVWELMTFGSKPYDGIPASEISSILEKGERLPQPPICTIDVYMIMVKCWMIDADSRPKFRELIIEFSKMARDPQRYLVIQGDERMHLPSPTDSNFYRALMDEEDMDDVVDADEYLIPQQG
Assay: Biochemical EGFR Inhibition Assays ([…])
Measurement Label: IC50 (nM)

>>> value_measured("COc1ccncc1-c1cc(C(=O)/N=c2\\[nH]c3cc(C4CCN(C(C)=O)CC4)ccc3n2CC(C)(C)O)ccn1")
3
